# target.or.test.system: Protein arginine N-methyltransferase 5 (Homo sapiens, UniProt O14744)
# Sequence (O14744 whole entry): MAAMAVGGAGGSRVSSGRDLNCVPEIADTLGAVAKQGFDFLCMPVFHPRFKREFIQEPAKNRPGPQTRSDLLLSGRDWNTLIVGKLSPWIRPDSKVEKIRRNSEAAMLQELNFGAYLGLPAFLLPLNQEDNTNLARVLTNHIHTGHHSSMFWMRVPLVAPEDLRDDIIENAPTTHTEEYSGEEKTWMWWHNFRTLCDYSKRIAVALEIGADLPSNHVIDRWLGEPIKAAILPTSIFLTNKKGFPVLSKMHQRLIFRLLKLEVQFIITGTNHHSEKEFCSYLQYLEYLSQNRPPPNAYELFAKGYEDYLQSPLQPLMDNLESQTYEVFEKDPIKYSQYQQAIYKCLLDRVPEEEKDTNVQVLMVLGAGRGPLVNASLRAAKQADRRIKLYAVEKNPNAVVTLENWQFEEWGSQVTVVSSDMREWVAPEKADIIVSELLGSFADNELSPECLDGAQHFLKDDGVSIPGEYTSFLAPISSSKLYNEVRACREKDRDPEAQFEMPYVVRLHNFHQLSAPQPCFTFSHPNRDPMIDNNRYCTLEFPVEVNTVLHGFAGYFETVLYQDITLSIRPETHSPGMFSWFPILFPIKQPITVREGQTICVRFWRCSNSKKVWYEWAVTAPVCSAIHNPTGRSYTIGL
# protocol.description: Inhibition of human PRMT5 by fluorescence-based SAHH-coupled assay
readout: IC50

>>> readout_value("N=C(N)NCCC[C@H](N)C(=O)NCC(=O)N[C@H](CCNC(=N)NCCSC[C@H]1O[C@@H](n2cnc3c(N)ncnc32)[C@H](O)[C@@H]1O)C(N)=O")
"0.42 nM"

###

Measured IC50 by item
# target.or.test.system: Protein arginine N-methyltransferase 5 (Homo sapiens, UniProt O14744)
# protocol.description: Inhibition of human PRMT5 using H4R3 S1ac and [3H]-SAM as substrate by AlphaLISA assay
readout: IC50 (µM)

>>> readout_value("COc1cc(Cl)cc(/C=C2\\SC(c3ccc(C)cc3)=NC2=O)c1O")
13.9
>>> readout_value("COc1cc(Br)cc(/C=C2\\SC(c3ccc(C)cc3)=NC2=O)c1O")
6.6
>>> readout_value("Cc1ccc(C2=NC(=O)/C(=C/c3ccc(O)c(O)c3)S2)cc1")
0.77

###

# target.or.test.system: Protein arginine N-methyltransferase 5 (Homo sapiens, UniProt O14744)
# protocol.description: Inhibition of PRMT5 human PRMT5 using Biotinylated H4 derived peptide and [3H]-SAM as substrate by radioactive methylation assay
Measured IC50 of individual entries
readout: IC50

>>> readout_value("COC(=O)c1ccccc1NC(=O)CSc1nc2ccc(CO)cc2[nH]1")
"0.33 µM"
>>> readout_value("Cc1ccc2[nH]c3c(c2c1)CCCC3NCCCOc1ccc(F)cc1 (stereo not drawn)")
"1.7 µM"
>>> readout_value("CCN(CC)CCNC1CCCc2c1[nH]c1ccc(C)cc21 (stereo not drawn)")
"5.7 µM"

###

# target.or.test.system: Protein arginine N-methyltransferase 1 (Homo sapiens, UniProt Q99873)
# Sequence (Q99873 whole entry): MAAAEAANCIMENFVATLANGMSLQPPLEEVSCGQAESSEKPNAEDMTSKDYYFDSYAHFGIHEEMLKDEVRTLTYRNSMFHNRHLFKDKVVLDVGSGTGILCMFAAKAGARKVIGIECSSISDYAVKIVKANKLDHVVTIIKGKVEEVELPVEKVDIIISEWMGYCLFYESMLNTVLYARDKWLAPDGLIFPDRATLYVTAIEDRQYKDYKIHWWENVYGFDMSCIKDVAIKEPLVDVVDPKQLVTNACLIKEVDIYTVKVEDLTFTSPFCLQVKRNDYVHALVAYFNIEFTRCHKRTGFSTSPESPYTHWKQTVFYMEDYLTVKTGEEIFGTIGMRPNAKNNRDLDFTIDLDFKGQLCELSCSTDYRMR
# protocol.description: Inhibition of human PRMT1 by fluorescence-based SAHH-coupled assay
// reported IC50 for each item listed
readout: IC50 (µM)

>>> readout_value("N=C(N)NCCC[C@H](N)C(=O)NCC(=O)N[C@H](CCNC(=N)NCSC[C@H]1O[C@@H](n2cnc3c(N)ncnc32)[C@H](O)[C@@H]1O)C(N)=O")
1.7
>>> readout_value("N=C(N)NCCC[C@H](N)C(=O)NCC(=O)N[C@H](CCNC(=N)NCCSC[C@H]1O[C@@H](n2cnc3c(N)ncnc32)[C@H](O)[C@@H]1O)C(N)=O")
5.9
>>> readout_value("C[C@@H]1[C@H](O)[C@@H](CSCCCNC(=N)NCCCC[C@@H](N)C(N)=O)O[C@H]1n1cnc2c(N)ncnc21")
3
